Reference source: patent US20220265629A1

# method: Single ascending oral dose study in healthy volunteers: plasma pharmacokinetics
# Assay type: in vivo, human
# conditionInfo: human, plasma, oral, 50 mg; read-out: Tmax, Median
valueType: Tmax (h)
Answer format: numeric, h implied, no suffix.

Need Tmax of Cn1cc(S(=O)(=O)[C@@](C)(F)C2CCN(C(=O)Nc3ccon3)CC2)c(C(F)F)n1 [Compound I] , thanks.
5

---

# method: Food effect cross-over study, 200 mg (25 mg tablets), healthy volunteers: plasma pharmacokinetics
# Type: in vivo, human
# conditionInfo: human, plasma, oral, 2 hours postdose, Fasted, read-out: Plasma concentration, Median
# Protocol: This example describes a clinical study for establishing, in healthy volunteers, the effect of a high fat, high caloric meal on the PK profile of Compound I, as compared to administration of the drug in the fasted state. The study also was intended to determine the safety and tolerability after a single oral dose of Compound I in the fed and fasted state in healthy volunteers. […] Plasma drug concentrations were measured as described in Example 1 above. […]
valueType: concentration at 2 h (ng/mL)
Answer format: numeric, ng/mL implied, no suffix.

Need concentration at 2 h of `Cn1cc(S(=O)(=O)[C@@](C)(F)C2CCN(C(=O)Nc3ccon3)CC2)c(C(F)F)n1` , thanks.
1820
